- tested_target: human αvβ3 (Homo sapiens, UniProt P05106+P06756)
- Sequence (P06756 31-889 limits assumed): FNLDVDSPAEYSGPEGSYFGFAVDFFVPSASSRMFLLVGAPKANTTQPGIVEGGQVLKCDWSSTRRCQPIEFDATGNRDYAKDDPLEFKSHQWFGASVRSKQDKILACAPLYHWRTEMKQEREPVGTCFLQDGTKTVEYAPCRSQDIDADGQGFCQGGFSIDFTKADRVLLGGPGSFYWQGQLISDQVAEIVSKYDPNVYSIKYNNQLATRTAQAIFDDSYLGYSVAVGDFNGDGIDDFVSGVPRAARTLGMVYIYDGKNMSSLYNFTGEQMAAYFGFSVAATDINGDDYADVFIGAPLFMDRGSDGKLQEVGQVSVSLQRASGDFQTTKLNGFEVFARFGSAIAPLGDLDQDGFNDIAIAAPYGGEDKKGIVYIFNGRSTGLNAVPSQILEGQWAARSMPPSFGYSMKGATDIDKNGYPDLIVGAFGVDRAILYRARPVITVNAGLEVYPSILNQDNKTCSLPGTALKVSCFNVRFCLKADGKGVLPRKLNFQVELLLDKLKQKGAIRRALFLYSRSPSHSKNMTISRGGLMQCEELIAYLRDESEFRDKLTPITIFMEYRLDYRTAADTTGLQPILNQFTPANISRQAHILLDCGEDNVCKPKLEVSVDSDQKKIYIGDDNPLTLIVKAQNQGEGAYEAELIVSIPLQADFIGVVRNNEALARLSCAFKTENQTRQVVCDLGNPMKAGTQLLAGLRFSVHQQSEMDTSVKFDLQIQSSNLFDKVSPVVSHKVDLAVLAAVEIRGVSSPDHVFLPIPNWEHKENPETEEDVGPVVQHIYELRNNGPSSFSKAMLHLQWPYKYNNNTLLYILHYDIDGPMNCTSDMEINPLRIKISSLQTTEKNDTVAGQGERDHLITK
- Sequence (P06756 891-1048 limits assumed): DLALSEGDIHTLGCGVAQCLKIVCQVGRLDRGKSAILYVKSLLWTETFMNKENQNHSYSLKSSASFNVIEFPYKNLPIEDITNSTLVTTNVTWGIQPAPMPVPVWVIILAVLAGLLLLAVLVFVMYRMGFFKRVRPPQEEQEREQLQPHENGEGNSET
- Sequence (P05106 27-788): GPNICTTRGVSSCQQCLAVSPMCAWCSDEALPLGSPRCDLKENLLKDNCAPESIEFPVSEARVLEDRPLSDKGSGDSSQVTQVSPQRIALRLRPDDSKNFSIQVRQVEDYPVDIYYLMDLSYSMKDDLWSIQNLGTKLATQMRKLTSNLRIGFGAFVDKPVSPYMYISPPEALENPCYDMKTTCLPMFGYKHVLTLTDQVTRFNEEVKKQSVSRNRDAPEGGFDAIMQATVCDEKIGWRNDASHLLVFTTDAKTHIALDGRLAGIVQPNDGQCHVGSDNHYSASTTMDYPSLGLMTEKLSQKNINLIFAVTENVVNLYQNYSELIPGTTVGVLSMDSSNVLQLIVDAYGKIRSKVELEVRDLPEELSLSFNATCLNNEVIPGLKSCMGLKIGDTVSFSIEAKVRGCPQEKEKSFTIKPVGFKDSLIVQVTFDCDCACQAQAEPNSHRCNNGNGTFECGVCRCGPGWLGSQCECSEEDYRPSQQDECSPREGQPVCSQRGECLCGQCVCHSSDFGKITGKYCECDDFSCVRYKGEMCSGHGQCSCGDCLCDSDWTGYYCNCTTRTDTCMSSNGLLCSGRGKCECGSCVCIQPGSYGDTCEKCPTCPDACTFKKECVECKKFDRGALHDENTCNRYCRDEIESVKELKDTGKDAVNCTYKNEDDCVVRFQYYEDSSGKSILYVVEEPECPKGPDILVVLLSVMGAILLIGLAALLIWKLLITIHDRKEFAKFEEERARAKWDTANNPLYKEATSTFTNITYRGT
- assay_explanation: αvβ3-vitronectin Assay
- run_parameters: inhibition of binding of biotinylated human vitronectin to plate-coated human αvβ3, ELISA, room temperature
endpoint_name: IC50 (nM)

compound="O=C(O)[C@@H]1C[C@H]1n1ccc2cc(OCCCNc3ccccn3)ccc21 (relative stereo)" endpoint_name=IC50 reported_measurement=670

1. CC(Cn1ccc2cc(OCCCNc3ccccn3)ccc21)C(=O)O (stereo not drawn)
2. O=C(O)CC(c1cccnc1)n1ccc2cc(OCCc3ccc4c(n3)NCCC4)ccc21 (stereo not drawn)
3. O=C(O)CCn1ccc2cc(OCCc3ccc4c(n3)NCCC4)ccc21
4. CCCC(CC(=O)O)n1ccc2cc(OCCc3ccc4c(n3)NCCC4)ccc21 (stereo not drawn)
5. CNc1cccc(CCOc2ccc3c(ccn3CCC(=O)O)c2)n1
Arrange these 5 compounds in increasing order of IC50. Return value: ordered labels per request.
2, 4, 3, 5, 1
(2: 0.24 nM, 4: 4 nM, 3: 6 nM, 5: 50 nM, 1: 500 nM)
